Some binders, each annotated with its measured koff.
Target: T1, monkey Fc-PD-1 protein (monkey, UniProt Q15116 25-170 (human entry))
T1 construct: not shown: Fc part not described
T1 chain: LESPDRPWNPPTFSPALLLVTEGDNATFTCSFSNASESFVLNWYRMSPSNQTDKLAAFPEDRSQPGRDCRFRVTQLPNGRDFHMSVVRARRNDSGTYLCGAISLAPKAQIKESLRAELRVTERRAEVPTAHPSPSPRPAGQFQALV
Experiment: Biacore, Fab, monkey Fc-PD-1
Metric: koff (s⁻¹)

1. A35775 (Fab, V domains shown, humanized Fab clone of 135C12; also called humanized antibody A35775) VH: EVQLVQSGAEVKKPGESLKISCKGSGYSFTNFYIHWVRQAPGQRLEWMGSIYPNYGDTAYNQKFKDRFVFSLDTSVSTAYLQISSLKAEDTAVYYCARGYSYAMDYWGQGTTVTVSS VL: DIQMTQSPSSVSASVGDRVTITCSASQGISGDLNWYQQKPGQAPRLLIYHTSSLHSGVPSRFSGSGSGTDFTLTISSLQPEDFATYYCQYYSKDLLTFGGGTKLEIK
0.000347
2. A35789 (Fab, V domains shown, humanized Fab clone of 135C12; also called humanized antibody A35789) VH: EVQLVQSGAEVKKPGESLKISCKGSGYSFTNFYIHWVRQMPGKGLEWMGSIYPNYGDTAYNQKFKDRVTITADKSTSTAYMELSSLRSEDTAVYYCARGYSYAMDYWGQGTTVTVSS VL: DIQMTQSPSSVSASVGDRVTITCSASQGISGDLNWYQQKPGQAPRLLIYHTSSLHSGIPARFSGSGSGTDFTLTISRLEPEDFAVYYCQYYSKDLLTFGGGTKLEIK
0.000413
3. A35783 (Fab, V domains shown, humanized Fab clone of 135C12; also called humanized antibody A35783) VH: EVQLVQSGAEVKKPGESLKISCKGSGYSFTNFYIHWVRQARGQRLEWIGSIYPNYGDTAYNQKFKDRFVFSLDTSVSTAYLQISSLKAEDTAVYYCARGYSYAMDYWGQGTTVTVSS VL: DIQMTQSPSSLSASVGDRVTITCSASQGISGDLNWYQQKPGKTPKLLIYHTSSLHSGVPSRFSGSGSGTDFTLTISSLQPEDFATYYCQYYSKDLLTFGGGTKLEIK
0.0008
